Target: NYAD-67
Assay: ITC
Conditions: both partners purified
Where no end group is shown, it is not given here.
PROPERTY: pKd
Interpret pKd as the negative base-10 log of the concentration measured in mol/L.

Request: So what does the record say about pKd for CTRPNYNKRKRIHIGPGRAFYTTKNIIGTIRQAHC (also: cyclic (mode not given here)) [full-length cyclic V3 loop peptide] ?
Response: 6.00
